All figures here come from patent US20200247894A1.

systemName: T1, Macaca fascicularis IL2Rγ extracellular domain expressed with a C-terminal myc-myc-hexahistidine tag (Macaca fascicularis)
T1 construct: also called mfIL-2Rg-MMH; mfIL-2RG-MMH
T1 chain: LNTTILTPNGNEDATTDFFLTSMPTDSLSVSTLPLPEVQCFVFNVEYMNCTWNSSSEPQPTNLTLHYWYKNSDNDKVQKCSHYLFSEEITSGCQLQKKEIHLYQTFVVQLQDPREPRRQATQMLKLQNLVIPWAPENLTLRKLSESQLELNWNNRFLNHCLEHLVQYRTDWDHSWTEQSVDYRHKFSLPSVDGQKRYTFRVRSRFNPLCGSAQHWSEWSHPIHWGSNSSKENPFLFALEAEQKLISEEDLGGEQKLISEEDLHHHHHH
measurementNotes: SPR, captured mAb, 25C, dissociation pH 7.4
Each record here notes measured 100 nM Ag Bound (RU).
A complete answer gives the number followed by the unit.

Field: example entries. Status: answers known.
[[record]]
binder = "H4H12890P (antibody, human IgG4 S228P, kappa, V domains shown, anti-IL2Rgamma mAb expressed with human IgG4 Fc) VH: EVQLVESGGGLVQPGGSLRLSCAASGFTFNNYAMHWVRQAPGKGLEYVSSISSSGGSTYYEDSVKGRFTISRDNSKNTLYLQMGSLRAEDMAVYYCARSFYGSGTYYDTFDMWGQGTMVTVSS VL: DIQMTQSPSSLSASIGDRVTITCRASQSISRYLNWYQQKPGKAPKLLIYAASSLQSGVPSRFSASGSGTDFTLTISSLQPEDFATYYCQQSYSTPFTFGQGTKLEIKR"
attributemeasured = "100 nM Ag Bound (RU)"
result = "71 RU"

[[record]]
binder = "H4H12874P (antibody, human IgG4 S228P, kappa, V domains shown, anti-IL2Rgamma mAb expressed with human IgG4 Fc) VH: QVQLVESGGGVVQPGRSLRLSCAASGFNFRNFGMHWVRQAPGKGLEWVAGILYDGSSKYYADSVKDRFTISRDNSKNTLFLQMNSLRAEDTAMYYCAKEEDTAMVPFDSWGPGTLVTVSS VL: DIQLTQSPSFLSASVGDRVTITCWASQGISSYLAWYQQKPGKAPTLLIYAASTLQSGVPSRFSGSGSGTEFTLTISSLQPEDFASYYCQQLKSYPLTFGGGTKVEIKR"
attributemeasured = "100 nM Ag Bound (RU)"
result = "73 RU"


// next item, 100 nM Ag Bound (RU) requested
input: Given the entry H4H12900P (antibody, human IgG4 S228P, kappa, V domains shown, anti-IL2Rgamma mAb expressed with human IgG4 Fc) VH: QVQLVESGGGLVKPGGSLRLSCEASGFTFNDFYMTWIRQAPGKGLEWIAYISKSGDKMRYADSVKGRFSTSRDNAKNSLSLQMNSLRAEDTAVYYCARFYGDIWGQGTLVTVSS VL: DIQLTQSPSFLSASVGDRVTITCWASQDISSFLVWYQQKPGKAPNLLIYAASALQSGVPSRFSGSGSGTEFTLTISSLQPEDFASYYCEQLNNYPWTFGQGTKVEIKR , report its measured 100 nM Ag Bound (RU).
output: 129 RU
